molecular target: human thrombin (Homo sapiens, UniProt P00734); test: Analysis of thrombin inhibition parameters (Lineweaver–Burk curves); format: biochemical; parameters: Thrombin, also known as an active plasma coagulation factor II; purchased Sigma-Aldrich Chemical Co. (St. Louis, MO, USA) T7009; conditions: thrombin incubated with compound at IC50 concentration; control 158.7
Measured K m of chromogenic substrate hydrolysis by thrombin, listed per entry.
Assay Metric: K m of chromogenic substrate hydrolysis by thrombin

Compound: Oc1cc(O)c2c(c1)O[C@H](c1ccc(O)c(O)c1)[C@@H](O)C2 [(+)-Catechin, (+)-catechin]
Measurement: 700.1 10^−6 M
//
Compound: O=c1c(O)c(-c2ccc(O)c(O)c2)oc2cc(O)cc(O)c12
Measurement: 633.8 10^−6 M
//
Compound: Oc1cc(O)c2cc(O)c(-c3ccc(O)c(O)c3)[o+]c2c1
Measurement: 600.6 10^−6 M
//
Compound: OC[C@H]1O[C@@H](Oc2cc3c(O[C@@H]4O[C@H](CO)[C@@H](O)[C@H](O)[C@H]4O)cc(O)cc3[o+]c2-c2ccc(O)c(O)c2)[C@H](O)[C@@H](O)[C@@H]1O
Measurement: 344.6 10^−6 M
//
Compound: Oc1cc(O)c2c(c1)O[C@H](c1ccc(O)c(O)c1)[C@H](O)C2 [(−)-Epicatechin, (−)-epicatechin]
Measurement: 481.5 10^−6 M
//
Compound: COc1cc(C2Oc3cc([C@H]4Oc5cc(O)cc(O)c5C(=O)[C@@H]4O)ccc3OC2CO)ccc1O (stereo in doubt)
Measurement: 550.5 10^−6 M

====

target: human thrombin (Homo sapiens); assay: Analysis of thrombin inhibition parameters (Lineweaver–Burk curves); type: biochemical; design: Thrombin, also known as an active plasma coagulation factor II; purchased Sigma-Aldrich Chemical Co. (St. Louis, MO, USA) T7009; conditions: thrombin incubated with compound at IC50 concentration; control 30.7
Assay Metric: V max of chromogenic substrate hydrolysis by thrombin

Compound: Oc1cc(O)c2c(c1)O[C@H](c1ccc(O)c(O)c1)[C@H](O)C2 [(−)-Epicatechin, (−)-epicatechin]
System Under Test: human thrombin (Homo sapiens)
Measurement: 29.4 10^−6 mol/min

Compound: O=c1c(O)c(-c2ccc(O)c(O)c2)oc2cc(O)cc(O)c12
System Under Test: human thrombin (Homo sapiens)
Measurement: 29.4 10^−6 mol/min

Compound: Oc1cc(O)c2c(c1)O[C@H](c1ccc(O)c(O)c1)[C@@H](O)C2 [(+)-Catechin, (+)-catechin]
System Under Test: human thrombin (Homo sapiens)
Measurement: 31.2 10^−6 mol/min

Compound: Oc1cc(O)c2cc(O)c(-c3ccc(O)c(O)c3)[o+]c2c1
System Under Test: human thrombin (Homo sapiens)
Measurement: 30.3 10^−6 mol/min

Compound: OC[C@H]1O[C@@H](Oc2cc3c(O[C@@H]4O[C@H](CO)[C@@H](O)[C@H](O)[C@H]4O)cc(O)cc3[o+]c2-c2ccc(O)c(O)c2)[C@H](O)[C@@H](O)[C@@H]1O
System Under Test: human thrombin (Homo sapiens)
Measurement: 20.8 10^−6 mol/min

Compound: COc1cc(C2Oc3cc([C@H]4Oc5cc(O)cc(O)c5C(=O)[C@@H]4O)ccc3OC2CO)ccc1O (stereo in doubt)
System Under Test: human thrombin (Homo sapiens)
Measurement: 27 10^−6 mol/min

====

target: human thrombin (Homo sapiens); experiment: BIAcore (SPR) analysis of binding to immobilized thrombin; design: Thrombin, also known as an active plasma coagulation factor II; purchased Sigma-Aldrich Chemical Co. (St. Louis, MO, USA) T7009; settings: 5 sensorgrams, 50 to 1,000 μM
Assay Metric: K A, equilibrium association constant (M⁻¹)

Molecule: COc1cc(C2Oc3cc([C@H]4Oc5cc(O)cc(O)c5C(=O)[C@@H]4O)ccc3OC2CO)ccc1O (stereo in doubt)
System Under Test: human thrombin (Homo sapiens)
Display Unit: M⁻¹
Measurement: 53900
--
Molecule: Oc1cc(O)c2c(c1)O[C@H](c1ccc(O)c(O)c1)[C@H](O)C2 [(−)-Epicatechin, (−)-epicatechin]
System Under Test: human thrombin (Homo sapiens)
Display Unit: M⁻¹
Measurement: 192
--
Molecule: OC[C@H]1O[C@@H](Oc2cc3c(O[C@@H]4O[C@H](CO)[C@@H](O)[C@H](O)[C@H]4O)cc(O)cc3[o+]c2-c2ccc(O)c(O)c2)[C@H](O)[C@@H](O)[C@@H]1O
System Under Test: human thrombin (Homo sapiens)
Display Unit: M⁻¹
Measurement: 115
--
Molecule: Oc1cc(O)c2c(c1)O[C@H](c1ccc(O)c(O)c1)[C@@H](O)C2 [(+)-Catechin, (+)-catechin]
System Under Test: human thrombin (Homo sapiens)
Display Unit: M⁻¹
Measurement: 20300
--
Molecule: O=c1c(O)c(-c2ccc(O)c(O)c2)oc2cc(O)cc(O)c12
System Under Test: human thrombin (Homo sapiens)
Display Unit: M⁻¹
Measurement: 2.59e+07

====

Consider the following compounds and their measured Response (RU) readings.
target: human thrombin (Homo sapiens, UniProt P00734); test: BIAcore (SPR) analysis of binding to immobilized thrombin; parameters: Thrombin, also known as an active plasma coagulation factor II; purchased Sigma-Aldrich Chemical Co. (St. Louis, MO, USA) T7009; details: analyte 1,000 μM, thrombin immobilized on CM5 chip

Compound: O=c1c(O)c(-c2ccc(O)c(O)c2)oc2cc(O)cc(O)c12
System Under Test: human thrombin (Homo sapiens, UniProt P00734)
Response (RU): 1,882 RU
//
Compound: Oc1cc(O)c2cc(O)c(-c3ccc(O)c(O)c3)[o+]c2c1
System Under Test: human thrombin (Homo sapiens, UniProt P00734)
Response (RU): 2,251 RU
//
Compound: COc1cc(C2Oc3cc([C@H]4Oc5cc(O)cc(O)c5C(=O)[C@@H]4O)ccc3OC2CO)ccc1O (stereo in doubt)
System Under Test: human thrombin (Homo sapiens, UniProt P00734)
Response (RU): 1,424 RU
